System Under Test: T1, his-tagged B7-H3 (UniProt Q5ZPR3-2 29-245, limits assumed)
T1 construct: also called CD276; not shown: His tag
T1 sequence (looked up): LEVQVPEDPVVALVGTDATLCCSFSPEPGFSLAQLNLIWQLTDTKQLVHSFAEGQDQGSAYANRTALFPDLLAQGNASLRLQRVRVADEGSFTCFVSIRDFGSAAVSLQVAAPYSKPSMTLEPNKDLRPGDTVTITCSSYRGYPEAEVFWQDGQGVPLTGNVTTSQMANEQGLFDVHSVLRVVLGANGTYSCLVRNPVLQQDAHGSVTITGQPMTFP
Assay Procedure: SPR, Carterra LSA; binder captured by anti-human Fc, his-tagged B7-H3 injected
Reported Metric: Kd

>>> recorded_measurement("40633p1.2.C3 scFv-Fc (scFv, V domains shown, Tested as scFv-Fc supernatant) VH: EVQLLESGGGLVQPGGSLRLSCAASGFTVSYYGMSWVRQAPGKGLEWVSAIKQDGSEKYYADSVKGRFTISRDNSKNTLYLQMNSLRAEDTAVYYCARHWNDYSNAMNVWEQGTTVTVSS VL: QSVLTQPPSASGTPGQRVTISCSGSNSNVGGNYVSWYQQLPGTAPKLLIYRNSQRPSGVPDRFSGSKSGTSASLAISGLQSEDEAVYYCASWDASLNGWVFGGGTKLTVL")
"20.7 nM"
>>> recorded_measurement("40633p1.1.G11 scFv-Fc (scFv, V domains shown, Tested as scFv-Fc supernatant) VH: EVQLLESGGGLVQPGGSLRLSCAASGFTVSYYGMSWVRQAPGKGLEWVSVIKQDGSEEYYADSVKGRFTISRDNSKNTLYLQMNSPRAEDTAVYYCARHWNDYSNGMNVWGQGTTVTVSS VL: QSVLTQPPSASGTPGQRVTISCSGSTSNVGDRYVYWYQQLPGTAPKLLIYLDDQRPSGVPDRFSGSKSGTSASLAISGLQSEDEADYYCASWDASLNGWVFGGGTKLTVL")
"1.48 nM"
>>> recorded_measurement("40633p1.1.B12 scFv-Fc (scFv, V domains shown) VH: EVQLLESGGGLLQPGGSLRLSCAASGFSFSSYGMHWVRQAPGKGLEWVAAINSDGSRIYYADSVKGRFTISRDNSKNTLYLQMNSLRAEDTAVYYCTKYYYHYAMDVWGQGTTVTVSS VL: QSVLTQPPSASGTPGQRVTISCSGSRSDIGATTVNWYQQLPGTAPKLLTYQSHLRPSGVPDRFSGSKSGTSASLAISGLQSEDEADYYCASWDASLNTWVFGGGTKLTVL")
"20.2 nM"

Value source: patent US20260008852A1
